Where do the numbers come from? From PubChem BioAssay (NCI).

# System: DU-145 prostate
# assay_overview: NCI-60 one-dose screen, 48 h (100 = growth as untreated, 0 = no growth, -100 = all killed)
# assay_conditions: 10 µM
This is part of a sample that, as a whole, favours compounds with a hit. Of some 83,000 tested, about 20% had one in any assay.
result_type: growth (%)

>>> val("C#CCSc1nnnn1-c1ccc(Br)c(C)c1")
107
>>> val("S=c1nn[nH]c2ccccc12")
120
>>> val("CC(=O)Oc1ccc(Br)cc1C(=O)O")
120
>>> val("O=c1cc(-c2ccccc2)[nH]c(=S)[nH]1")
104
>>> val("COC1=CC(=O)c2nc(Cl)ccc2C1=O")
63
>>> val("O=[N+]([O-])c1ccc(Cl)c(S(=O)(=O)O)c1")
109
>>> val("O=C(Nc1ccccc1C(=O)NCC1CC1)c1cccs1")
118
>>> val("Cc1ccc(C)n1-c1ccsc1C(=O)NNC(=O)C(Cl)Cl")
109
>>> val("O=[N+]([O-])c1ccc(-c2ncc(-c3ccc(Br)cc3)o2)cc1")
112
>>> val("CC(C)COC(=O)COC(=O)OCCOCCOC(=O)OCC(=O)OCC(C)C")
95.3
>>> val("CCOC(=O)/C(=C/c1ccc(OC)cc1)N(CC)CC")
102
>>> val("O=C(NCc1ccco1)Nc1c(Cl)cc(Cl)cc1Cl")
113
>>> val("CCOC(=O)CCCC(=O)OCC")
103

====

# System: HCT-116 colon
# assay_overview: NCI-60 one-dose screen, 48 h (100 = growth as untreated, 0 = no growth, -100 = all killed)
# assay_conditions: 10 µM
The panel holds about 83,000 compounds, 20% with a hit somewhere; the sample as a whole holds those more often.
Mark not satisfied for growth values under 90%, and satisfied for everything at or above.

>>> label_value("O=C(CCNNC(=O)c1ccncc1)NCc1ccccc1")
"satisfied"
>>> label_value("O=[N+]([O-])c1ccc(CO)cc1")
"satisfied"
>>> label_value("C/C(=N/NC(N)=O)c1ccco1")
"satisfied"
>>> label_value("C#C[C@H]1CCCCCC1O (stereo partly specified)")
"satisfied"
>>> label_value("N#CSc1cc(S(N)(=O)=O)ccc1N")
"satisfied"
>>> label_value("c1ccc(Cc2ccccc2)cc1")
"satisfied"
>>> label_value("O=c1[nH]cc(Cl)cc1O")
"satisfied"
>>> label_value("CCOC(=O)Nc1nn[nH]n1")
"satisfied"
>>> label_value("O=[N+]([O-])c1ccccc1N=Nc1ccc(O)cc1O")
"satisfied"
>>> label_value("COC(=O)CCCCC1=CCC2C(=O)C=C(O)C2C1 (stereo unspecified)")
"satisfied"
>>> label_value("O=C(/C=C\\c1ccc(O)cc1)c1ccccc1")
"not satisfied"
>>> label_value("CCCC(C)OCC(=O)O (stereo unspecified)")
"satisfied"
>>> label_value("COc1cccc(COC(=O)Nc2ccccc2)c1OC")
"satisfied"
>>> label_value("CC(C)(O)C#CC#CC(C)(C)O")
"satisfied"
>>> label_value("O=C(/C(=N/O)c1ccccc1)c1ccccc1")
"satisfied"
>>> label_value("CNS(=O)(=O)c1ccc(Cl)c(Cl)c1")
"satisfied"
>>> label_value("CC(C)=CC(=O)OC(=O)C=C(C)C")
"satisfied"
>>> label_value("S=c1sc2ccccc2n1CN1CCCCC1")
"satisfied"
>>> label_value("NC(CSC(c1ccccc1)(c1ccccc1)c1ccccc1)C(=O)O (stereo unspecified)")
"not satisfied"
>>> label_value("Oc1ccccc1-c1nnco1")
"satisfied"
>>> label_value("C=CC(O)CCC (stereo unspecified)")
"satisfied"
>>> label_value("CCOC(=O)C/C(C)=N\\O")
"satisfied"
>>> label_value("O=C(CC(=O)c1ccccc1O)c1ccccc1")
"not satisfied"
>>> label_value("CC12CC3CC1C(C(=O)O2)C3C(=O)O (stereo unspecified)")
"satisfied"
>>> label_value("COc1cc2c3cc1Oc1c(OC)c(OC)cc4c1C(Cc1ccc(O)c(c1)Oc1ccc(cc1)CC3N(C)CC2)N(C)CC4 (stereo unspecified)")
"not satisfied"
>>> label_value("c1ccc(Sc2ccccc2)cc1")
"satisfied"
>>> label_value("O=C(O)C(O)c1ccccc1 (stereo unspecified)")
"satisfied"
>>> label_value("O=S(=O)(O)C(Nc1ccccc1)c1ccccc1 (stereo unspecified)")
"satisfied"
>>> label_value("Cc1nc2ccccc2c2nnc(SCC(=O)N(Cc3ccccc3)c3ccccc3)n12")
"not satisfied"
>>> label_value("O=C(CN1CCNCC1)N1CCOCC1")
"satisfied"
>>> label_value("CCc1nc(N)nc(N)c1-c1ccc(Cl)cc1")
"not satisfied"
>>> label_value("CC(=O)OC(C(=O)O)c1ccccc1 (stereo unspecified)")
"satisfied"
>>> label_value("Cc1cccc(C(=O)N(C(C)C)C(C)C)c1")
"satisfied"
>>> label_value("OCCN1CCOCC1")
"satisfied"
>>> label_value("O=C(O)CCCc1ccccc1")
"satisfied"
>>> label_value("NC(C(=O)O)C(O)c1ccco1 (stereo unspecified)")
"satisfied"
>>> label_value("CC(=Nc1ccccc1)C1=C(O)C(Cc2cccc(F)c2)NC1=O (stereo unspecified)")
"not satisfied"
>>> label_value("CC1(C)/C(=C\\CO)C2CCC1C2 (stereo unspecified)")
"satisfied"
>>> label_value("Cc1ccc(/C=C2\\SC(=S)N(c3ccc(F)cc3)C2=O)o1")
"not satisfied"
>>> label_value("Cc1cc(N2CCC(N3CCCC3)CC2)nc(/N=C(\\N)Nc2ccc(Cl)c(Cl)c2)n1")
"not satisfied"
>>> label_value("O=C(Nc1ccccc1)OCCc1ccccc1")
"satisfied"
>>> label_value("COc1cc2c(cc1O)CC[C@@H]1C2CC[C@@]2(C)C1CC[C@@H]2O (stereo partly specified)")
"not satisfied"
>>> label_value("C#Cc1cccc(NC(=O)c2ccc(Cl)cc2Cl)c1")
"satisfied"
>>> label_value("c1ccc(CN2COc3c(ccc4c3OCN(Cc3ccccc3)C4)C2)cc1")
"not satisfied"
>>> label_value("Nc1ccc(N=Nc2ccc(O)cc2)c(N)n1")
"not satisfied"
>>> label_value("c1cc[n+](C2c3ccccc3C([n+]3ccccc3)c3ccccc32)cc1 (stereo unspecified)")
"not satisfied"
>>> label_value("CCCCC(O)c1ccccc1 (stereo unspecified)")
"satisfied"
>>> label_value("CC1CC(O)C2C3(C)CCCC2(COC3=O)C12CCC1(CCOC1=O)O2 (stereo unspecified)")
"satisfied"
>>> label_value("O=C(O)c1ccc(S(=O)(=O)O)cc1")
"satisfied"
